Origin of values: the emibetuzumab library of Makowski et al. (2022)

B1: VH:VL chains; a variant is named by its letters at X, in order (parent)
chain 1: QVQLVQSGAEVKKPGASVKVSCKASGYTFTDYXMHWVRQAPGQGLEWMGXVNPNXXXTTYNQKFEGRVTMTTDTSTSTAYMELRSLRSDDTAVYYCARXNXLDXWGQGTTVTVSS
chain 2: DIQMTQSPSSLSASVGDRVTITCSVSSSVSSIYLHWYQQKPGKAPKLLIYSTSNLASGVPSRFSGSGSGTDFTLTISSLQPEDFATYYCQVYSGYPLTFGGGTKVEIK

variants of: B1; experiment: yeast display scFab, FACS + sequencing

{"MUTATION": "DTGTGSSA", "non-specific binding call": "no binding"}
{"MUTATION": "STKRSFWA", "non-specific binding call": "binds"}
{"MUTATION": "YRTGAASD", "non-specific binding call": "binds"}
{"MUTATION": "DAKEGDLV", "non-specific binding call": "no binding"}
{"MUTATION": "FARAGDWV", "non-specific binding call": "binds"}
{"MUTATION": "YRGKGVGV", "non-specific binding call": "binds"}
{"MUTATION": "YKTESYWY", "non-specific binding call": "binds"}
{"MUTATION": "VKGRGDAA", "non-specific binding call": "no binding"}
{"MUTATION": "FRGGSSGS", "non-specific binding call": "binds"}
{"MUTATION": "FAGRSDWV chain 1 R67H", "non-specific binding call": "no binding"}
{"MUTATION": "YKTRSAWS chain 1 M48I", "non-specific binding call": "binds"}
{"MUTATION": "YRGRDAGF", "non-specific binding call": "binds"}
{"MUTATION": "YREKGSSV", "non-specific binding call": "binds"}
{"MUTATION": "YRGRGFGY", "non-specific binding call": "binds"}
{"MUTATION": "YKRGDAGY", "non-specific binding call": "no binding"}
{"MUTATION": "VTAGDDVA", "non-specific binding call": "no binding"}
{"MUTATION": "FRGKGASV", "non-specific binding call": "binds"}
{"MUTATION": "VETRSDVA", "non-specific binding call": "no binding"}
{"MUTATION": "YRTRSAGA", "non-specific binding call": "binds"}
{"MUTATION": "VRRGGAAA", "non-specific binding call": "binds"}
{"MUTATION": "FRRGGSVD", "non-specific binding call": "binds"}
{"MUTATION": "YGATSSLA", "non-specific binding call": "binds"}
{"MUTATION": "FKKRGAWS", "non-specific binding call": "binds"}
{"MUTATION": "FRGESSGA", "non-specific binding call": "binds"}
{"MUTATION": "FRRRGAAD", "non-specific binding call": "binds"}
{"MUTATION": "AARADSSA", "non-specific binding call": "no binding"}
{"MUTATION": "FRKRGSAV", "non-specific binding call": "binds"}
{"MUTATION": "VRAGADVV", "non-specific binding call": "no binding"}
{"MUTATION": "ARAGSFWA", "non-specific binding call": "binds"}
{"MUTATION": "YEGGADVV", "non-specific binding call": "no binding"}
{"MUTATION": "SAAGSVWY", "non-specific binding call": "no binding"}
{"MUTATION": "FRKAAVAV", "non-specific binding call": "binds"}
{"MUTATION": "DRGEGAGD chain 1 G42D", "non-specific binding call": "no binding"}
{"MUTATION": "SKAGGAGA", "non-specific binding call": "binds"}
{"MUTATION": "YRAGTAVD", "non-specific binding call": "binds"}
{"MUTATION": "FRGRGSAA", "non-specific binding call": "binds"}
{"MUTATION": "DAGGGDWD", "non-specific binding call": "no binding"}
{"MUTATION": "YAAGASVD", "non-specific binding call": "no binding"}
{"MUTATION": "YRRGGSGS", "non-specific binding call": "binds"}
{"MUTATION": "YKGGGAGS", "non-specific binding call": "binds"}
{"MUTATION": "VRGGDAVA", "non-specific binding call": "no binding"}
{"MUTATION": "VRERGDAA", "non-specific binding call": "no binding"}
{"MUTATION": "VRRGGALD", "non-specific binding call": "binds"}
{"MUTATION": "VEEEGSVD", "non-specific binding call": "no binding"}
{"MUTATION": "VARETDVA", "non-specific binding call": "no binding"}
{"MUTATION": "YRAGTSGD", "non-specific binding call": "binds"}
